target: collagen (coated on 96-well plates, Example 2); experiment: collagen-coated 96-well plate, biotin-labelled bioconjugate, streptavidin-HRP/TMB, absorbance at 450 nm (Example 2), the concentration axis is in ug/ml
Endpoint Name: EC50 (µg/mL)

Study these solved cases before continuing.
Binder	Readout Units	EC50
GQLYKSILYGSRGRGSG (not fully specified; C-terminal hydrazide (-NHNH2) coupled to heparin; part of the peptides biotin-labelled) [Compound 6]	µg/mL	63.3
GQLYKSILYGSRGSG (not fully specified; C-terminal hydrazide (-NHNH-) bonded to a carboxyl of heparin; part of the peptides biotin-labelled) [Compound 8 (heparin bioconjugate of …-NHNH2)]	µg/mL	47.1

(A) GQLYKSILYGRSGRGSG (not fully specified; C-terminal hydrazide (-NHNH2) coupled to heparin; part of the peptides biotin-labelled) [Compound 7]
(B) GQLYKSILYGSGSGSRR (not fully specified; C-terminal hydrazide (-NHNH-) bonded to a carboxyl of heparin; part of the peptides biotin-labelled) [Compound 10 (heparin bioconjugate of …-NHNH2)]
Exam item: Dear colleague, could you let me know whether A or B has the lower recorded EC50? Thanks. Reply briefly: the label of your chosen item.
Marked response: B
